Experimental details: inhibitors of TNFa-induced NFkB p65 translocation, primary screen, imaging, HUVEC, MLSMR starter and 10KST1 sets (AID 438);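 further: compound added about 3h40 before a 20 min TNFalpha stimulation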
Test settings: HUVEC TNFa-induced p65 nuclear translocation; measured here: nuclei count (cytotoxicity indicator), at 2.08 µM
Assign cell count to each entry below.
Give bare numbers.

Some compounds with known cell count results, for comparison:
For the compound "Cc1cccc(N2CCN(C(=O)c3ccc(NS(=O)(=O)c4c(C)noc4C)cc3)CC2)c1C" , give its reported cell count. 334

For the compound "O=C(c1ccccc1)c1ccc(N2CCOCC2)c(NC(=O)c2ccco2)c1" , give its reported cell count. 318

For the compound "Cc1ccc(S(=O)(=O)N(C)CC(=O)NC2CC(C)(C)NC(C)(C)C2)cc1" , give its reported cell count. 331

For the compound "COCCn1c(-c2ccc(OC)c(OC)c2)nc2ccccc21" , give its reported cell count. 247

For the compound "CC(C)[C@H](NC(=O)OC(C)(C)C)c1nnc(S(=O)(=O)Cc2c(F)cccc2Cl)o1" , give its reported cell count. 570

For the compound COc1cccc(C2C(C#N)=C(N)OC3=C2C(=O)CCC3)c1OC(=O)c1ccco1 (stereo not given) , give its reported cell count. 384

Quick request: cell count for each listed item, please.
1. COc1ccccc1N1CCN(C(=O)c2ccc3nc(-c4ccco4)c(-c4ccco4)nc3c2)CC1
2. O=C(NCCN1CCN(c2ccccc2)CC1)c1ccc(NC(=O)C2CCCO2)cc1 (stereo not given)
3. Cc1nnc2ccc(N3CCC4(CC3)OCCO4)nn12
4. O=C(O)c1cc(/C=N\O)ccc1OCc1ccccc1

1: 570; 2: 562; 3: 538; 4: 697

====

Experimental details: TLR3 IRF3 reporter activation blockers – cell-based, poly I:C stimulus, luciferase, 10K MLSCN set, primary screen (AID 602277)
Test settings: HEK293-TLR3 RL24 IRF3 luciferase reporter, at 10 µM, stronger effect = higher value
So basically: inhibition at 20% or higher? That is true (1). Lower than 20%? That is false (0).

Observe how each entry below is paired with its result.
Kindly determine if inhibition recorded for "Cc1nn(-c2ccc(F)cc2)c2nc(N)c(C#N)c(-c3cccs3)c12" is above or exactly 20%. true (1)

Kindly determine if inhibition recorded for "COc1cccc(OC)c1C(=O)Nc1ccccc1N1CCCC1" is above or exactly 20%. false (0)

Kindly determine if inhibition recorded for "Cc1ccc(-n2c(=O)c3sccc3n(CC(=O)NCc3ccco3)c2=O)cc1" is above or exactly 20%. false (0)

Kindly determine if inhibition recorded for "CCOC(=O)c1sc(NC(=O)CSc2nc3c(cc2C#N)CCC3)c(C#N)c1C" is above or exactly 20%. false (0)

Kindly determine if inhibition recorded for "CCn1c(=O)n(CC(=O)Nc2cc(OC)ccc2OC)c(=O)c2ccccc21" is above or exactly 20%. true (1)

Would you kindly look at the next entry?
Kindly determine if inhibition recorded for COCCN1C(=O)C(=O)/C(=C(/O)c2cccc(S(=O)(=O)N(C)C)c2)C12C(=O)N(C)c1ccccc12 (stereo unspecified) is above or exactly 20%. true (1)

====

Experimental details: endothelial E-selectin expression blockers – imaging, HUVEC, immunofluorescence, MLSMR starter and 10KST1 sets, primary screen (AID 487);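 further: signal is fraction of cell area covered by stained E-selectin grains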
Test settings: HUVEC TNFalpha-induced E-selectin immunofluorescence imaging, at 2 µM; stronger effect = higher value
Where a SMILES comes first, the peptide text is derived from it. The star is where a group is joined. Boc = CC(C)(C)OC(=O)*
Assign inhibition to each entry below.
Answers are plain numbers, in %.

Some compounds with known inhibition results, for comparison:
For the compound "CN(c1cccc(NC(=O)COc2ccccc2)c1)S(C)(=O)=O" , give its reported inhibition. -143

For the compound "O=C(NC1CCCC1)c1cc(-c2cccs2)on1" , give its reported inhibition. 16.1

For the compound "COc1cccc(CNC(=O)CCn2c(=O)oc3ccccc32)c1" , give its reported inhibition. -28.3

For the compound O=C(COC(=O)c1cc(S(=O)(=O)N2CCOCC2)ccc1O)NCC1CCCO1 (stereo not given) , give its reported inhibition. -39.1

For the compound "Cc1ccc2c(COn3nnc4ccc(S(=O)(=O)N(C)C)cc43)cc(=O)oc2c1C" , give its reported inhibition. 30.2

For the compound CC(C)CC(NC(=O)OC(C)(C)C)C(=O)NC(C(=O)NC(C)C(N)=O)C(C)C (stereo not drawn) (Boc-Leu-Val-Ala-NH2; configuration not given here) , give its reported inhibition. -20.6

Quick request: inhibition for each listed item, please.
1. CCOC(=O)COc1ccc(S(=O)(=O)Nc2ccc3c(c2)OCO3)cc1
2. CCCCOc1ccccc1P(=O)(O)CP(=O)(c1ccccc1)c1ccccc1
3. C[N+]1=C2CCCCCN2C(O)(c2ccccc2)C1 (stereo not given)
4. COc1ccc(CCNC(=O)C2CCN(Cc3nc(-c4cccc(Cl)c4)oc3C)CC2)cc1OC

[-137, -205, -1.4, -12.2]

====

Test target: Alpha-2C adrenergic receptor (Homo sapiens) (UniProt P18825)
Sequence (P18825 whole entry, looked up): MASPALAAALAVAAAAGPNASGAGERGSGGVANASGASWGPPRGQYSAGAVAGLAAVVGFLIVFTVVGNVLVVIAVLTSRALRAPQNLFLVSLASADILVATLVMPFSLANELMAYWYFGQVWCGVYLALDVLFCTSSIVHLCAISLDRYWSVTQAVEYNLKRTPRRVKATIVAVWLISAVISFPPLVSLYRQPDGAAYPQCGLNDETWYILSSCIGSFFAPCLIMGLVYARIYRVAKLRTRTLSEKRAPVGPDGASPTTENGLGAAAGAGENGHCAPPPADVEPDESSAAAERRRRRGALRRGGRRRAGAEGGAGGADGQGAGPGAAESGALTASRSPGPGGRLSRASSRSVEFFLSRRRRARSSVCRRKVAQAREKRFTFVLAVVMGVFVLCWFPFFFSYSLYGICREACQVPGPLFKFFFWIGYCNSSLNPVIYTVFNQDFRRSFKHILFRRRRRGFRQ
Experimental details: compounds altering alpha2C-coupled GIRK flux – cell-based, HEK293 alpha2C/GIRK1/2, thallium flux, primary screen (AID 624);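 further: slope of fluorescence ratio to pre-addition baseline per second over 15 to 24 s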
Test settings: thallium flux BTC fluorescence, at 10 µM, actives lie on both sides
So basically: slope at 0.004 or higher? That is condition met. Lower than 0.004? That is condition not met.

Kindly determine if slope recorded for "COc1ccc(OCc2nc(N)nc(Nc3cccc(C)c3C)n2)cc1" is above or exactly 0.004. condition not met

Kindly determine if slope recorded for "NS(=O)(=O)c1cc2c(cc1C(F)(F)F)NCNS2(=O)=O" is above or exactly 0.004. condition met

Kindly determine if slope recorded for "COc1ccc2cc([C@H](C)C(=O)O)ccc2c1" is above or exactly 0.004. condition met

Kindly determine if slope recorded for "CC1(C)O[C@@H]2C[C@H]3[C@@H]4CCC5=CC(=O)C=C[C@]5(C)[C@@]4(F)[C@@H](O)C[C@]3(C)[C@]2(C(=O)CO)O1" is above or exactly 0.004. condition met

Kindly determine if slope recorded for CC(COc1ccccc1)N(CCCl)Cc1ccccc1 (stereo unspecified) is above or exactly 0.004. condition met

Would you kindly look at the next entry?
Kindly determine if slope recorded for "CC(=O)OCC1=C(C(=O)O)N2C(=O)[C@@H](NC(=O)Cc3cccs3)[C@H]2SC1" is above or exactly 0.004. condition met

====

Assign NADPH fluorescence slope to each entry below.
Test target: Voltage-gated potassium channel subunit beta-2 (Rattus norvegicus) (UniProt P62483)
Sequence (P62483 whole entry, looked up): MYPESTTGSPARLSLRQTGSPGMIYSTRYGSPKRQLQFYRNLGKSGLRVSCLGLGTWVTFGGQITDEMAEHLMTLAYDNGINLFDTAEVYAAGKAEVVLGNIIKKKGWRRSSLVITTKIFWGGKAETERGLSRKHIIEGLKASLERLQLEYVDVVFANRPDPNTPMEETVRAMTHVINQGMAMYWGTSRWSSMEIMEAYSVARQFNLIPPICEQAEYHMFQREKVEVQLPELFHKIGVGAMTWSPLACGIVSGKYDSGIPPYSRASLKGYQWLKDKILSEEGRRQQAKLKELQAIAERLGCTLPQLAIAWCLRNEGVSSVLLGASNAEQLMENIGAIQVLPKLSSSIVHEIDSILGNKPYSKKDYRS
Experimental details: enhancers of rat Kvbeta2 NADPH turnover – biochemical, NADPH fluorescence, primary screen (AID 623);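 further: fluorescence intensity change per second fitted from 20 to 320 s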
Test settings: Recombinant KvBeta, NADPH fluorescence decrease slope, 10 min; at 10 µM; stronger effect = lower value
Numbers only.

For the molecule CC1CC(=O)C2=C(C1)OC(N)=C(C#N)C2c1coc2ccccc2c1=O (stereo not drawn) , give its reported NADPH fluorescence slope. -4.1e-05

Quick request: NADPH fluorescence slope for each listed item, please.
1. CC1CCCC(NC(=O)CN2CCN(Cc3ccc(Cl)cc3)C2=O)C1C (stereo not drawn)
2. O=C(CSc1nnc(Cn2nnc(-c3ccccc3)n2)n1-c1ccccc1)Nc1ccc(F)cc1
3. COc1ccccc1C(=O)N1CCCC(c2nc(-c3cc(OC)c(OC)c(OC)c3)no2)C1 (stereo not drawn)
4. Cc1cccc(CS(=O)(=O)Cc2ccc(C(=O)NCC3CCCO3)o2)c1 (stereo not drawn)

1: -3.7e-05; 2: -6e-05; 3: -3.6e-05; 4: 9.9e-06

====

Experimental details: inhibitors of TNFa-induced NFkB p65 translocation, primary screen, imaging, HUVEC, MLSMR starter and 10KST1 sets (AID 438);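 further: compound added about 3h40 before a 20 min TNFalpha stimulation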;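 on inhibition: signal is the nuclear over cytoplasmic p65 intensity ratio per well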
Test settings: HUVEC TNFa-induced p65 nuclear translocation; at 2 µM, stronger effect = higher value, 0% TNFa-plus-vehicle, 100% no-TNFa wells
The source made the active and inactive calls.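 The calls were made as follows: active = inhibition above 20% together with a positive visual image hit; inconclusive = visual image hit but inhibition not above 20%; inactive = no visual image hit.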
Metric name: inhibition

Some compounds with known inhibition results, for comparison:
For the compound "CC(C)OC(=O)CSc1nnc(Cc2ccccc2)n1Cc1ccco1" , give its reported inhibition. 28.5% (active)

For the compound "CCCCCCn1c(SCCCC)nc2c1c(=O)[nH]c(=O)n2C" , give its reported inhibition. -8% (inactive)

For the compound "CN(C)S(=O)(=O)c1ccc(C(=O)N2CCC(c3nc4ccccc4o3)CC2)cc1" , give its reported inhibition. 8.2% (inactive)

For the compound "O=C(O)CCc1ccc(-c2cccs2)n1NC(=O)c1ccco1" , give its reported inhibition. 3.6% (inactive)

For the compound "COCc1cc(C)c2c(N)c(C#N)sc2n1" , give its reported inhibition. 2.2% (inactive)

For the compound "COc1ccc(Cn2c(=O)[nH]c3cc(C(=O)NCCCN4CCCC4)ccc3c2=O)cc1" , give its reported inhibition. -5.2% (inactive)

For the compound "CC(C)(C)SCCNC(=O)COc1ccccc1" , give its reported inhibition. -2.3% (inactive)

For the compound "CCN(CC)c1ccc2c(c1)C(=O)N(C)C2=O" , give its reported inhibition. -1.9% (inactive)

Quick request: inhibition for each listed item, please.
1. CC(c1nnc(SCC(=O)Nc2sccc2C#N)n1-c1ccc(Cl)cc1)N(C)C (stereo unspecified)
2. CCOC(=O)C1CCCN(c2nc3ccccc3nc2C(C#N)C(=O)NCc2ccccc2)C1 (stereo unspecified)

-20.1% (inactive)
9.6% (inactive)

For the compound O=C(NCc1ccco1)c1cc2n(n1)C(C(F)(F)F)CC(c1ccc(F)cc1)N2 (stereo unspecified) , give its reported inhibition. 6.5% (inactive)
